Tested on: Echinochloa crus-galli
run-description: Weed control post-emergence (greenhouse pot test)
Type: in vivo
experimental-context: post-emergence (three-leaf stage), 2,5 kg a.i./ha, visual rating after ca. 3-4 weeks
Record form. Attribute: Herbizide Wirkung im Nachauflauf ECG. Fill in for each entry.

Cc1ncsc1COC(OC(=O)c1cc(Oc2ccc(C(F)(F)F)cc2Cl)ccc1[N+](=O)[O-])C(Cl)(Cl)Cl (centres unmarked) [compound 37] | 2 (= 20 - 40 % Wirkung bzw. Schaden)
CP(C)(=O)COC(OC(=O)c1cc(Oc2ccc(C(F)(F)F)cc2Cl)ccc1[N+](=O)[O-])C(Cl)(Cl)Cl (centres unmarked) [compound 46] | 2 (= 20 - 40 % Wirkung bzw. Schaden)
CCOC(=O)COC(OC(=O)c1cc(Oc2ccc(C(F)(F)F)cc2Cl)ccc1[N+](=O)[O-])C(Cl)(Cl)Cl (centres unmarked) [compound 22] | 5 (= 80 - 100 % Wirkung bzw. Schaden)
CCOC(OC(=O)c1cc(Oc2ccc(C(F)(F)F)cc2Cl)ccc1[N+](=O)[O-])C(Cl)(Cl)Cl (centres unmarked) [compound 5] | 2 (= 20 - 40 % Wirkung bzw. Schaden)

Could you now consider this next compound?
Query the reported Herbizide Wirkung im Nachauflauf ECG for Echinochloa crus-galli; item: N#CCCSCCOC(OC(=O)c1cc(Oc2ccc(C(F)(F)F)cc2Cl)ccc1[N+](=O)[O-])C(Cl)(Cl)Cl (centres unmarked) [compound 9]
2 (= 20 - 40 % Wirkung bzw. Schaden)

* * *

So I've got a bunch of molecules here, and I need their Herbizide Wirkung im Nachauflauf ECG values.
Tested on: Echinochloa crus-galli
run-description: Weed control post-emergence (greenhouse pot test)
Type: in vivo
experimental-context: post-emergence (three-leaf stage), 2,5 kg a.i./ha, visual rating after ca. 3-4 weeks

CCOC(=O)C(C)OC(OC(=O)c1cc(Oc2ccc(C(F)(F)F)cc2Cl)ccc1[N+](=O)[O-])C(Cl)(Cl)Cl (stereo not drawn) [compound 23] | 2 (= 20 - 40 % Wirkung bzw. Schaden)
COC(=O)CC(OC(OC(=O)c1cc(Oc2ccc(C(F)(F)F)cc2Cl)ccc1[N+](=O)[O-])C(Cl)(Cl)Cl)C(=O)OC (stereo not drawn) [compound 31] | 3 (= 40 - 60 % Wirkung bzw. Schaden)
O=C(OC(OCC(F)(F)C(F)F)C(Cl)(Cl)Cl)c1cc(Oc2ccc(C(F)(F)F)cc2Cl)ccc1[N+](=O)[O-] (stereo not drawn) [compound 7] | 3 (= 40 - 60 % Wirkung bzw. Schaden)
CCOC(=O)C(C)OC(OC(=O)c1cc(Oc2c(Cl)cc(C(F)(F)F)cc2Cl)ccc1[N+](=O)[O-])C(Cl)(Cl)Cl (stereo not drawn) [compound 34] | 4 (= 60 - 80 % Wirkung bzw. Schaden)

Provide reported Herbizide Wirkung im Nachauflauf ECG for each item, in the same order as listed.
1. CCOC(=O)C(C)(C)OC(OC(=O)c1cc(Oc2ccc(C(F)(F)F)cc2Cl)ccc1[N+](=O)[O-])C(Cl)(Cl)Cl (stereo not drawn) [compound 30]
2. CC1(C)OCC(COC(OC(=O)c2cc(Oc3ccc(C(F)(F)F)cc3Cl)ccc2[N+](=O)[O-])C(Cl)(Cl)Cl)O1 (stereo not drawn) [compound 6]

4 (= 60 - 80 % Wirkung bzw. Schaden)
0

* * *

Assign Herbizide Wirkung im Nachauflauf STM to each entry below.
System: Stellaria media
run-description: Weed control post-emergence (greenhouse pot test)
Format: in vivo
experimental-context: post-emergence (three-leaf stage), 2,5 kg a.i./ha, visual rating after ca. 3-4 weeks

CCOC(=O)C(C)OC(OC(=O)c1cc(Oc2c(Cl)cc(C(F)(F)F)cc2Cl)ccc1[N+](=O)[O-])C(Cl)(Cl)Cl (centres unmarked) | 5 (= 80 - 100 % Wirkung bzw. Schaden)
CCOC(OC(=O)c1cc(Oc2ccc(C(F)(F)F)cc2Cl)ccc1[N+](=O)[O-])C(Cl)(Cl)Cl (centres unmarked) | 2 (= 20 - 40 % Wirkung bzw. Schaden)
N#CCCSCCOC(OC(=O)c1cc(Oc2ccc(C(F)(F)F)cc2Cl)ccc1[N+](=O)[O-])C(Cl)(Cl)Cl (centres unmarked) | 0

Go through the items and report each one's Herbizide Wirkung im Nachauflauf STM.
1. CC1(C)OCC(COC(OC(=O)c2cc(Oc3ccc(C(F)(F)F)cc3Cl)ccc2[N+](=O)[O-])C(Cl)(Cl)Cl)O1 (centres unmarked)
2. COC(=O)CC(OC(OC(=O)c1cc(Oc2ccc(C(F)(F)F)cc2Cl)ccc1[N+](=O)[O-])C(Cl)(Cl)Cl)C(=O)OC (centres unmarked)
3. O=C(OC(OCC(F)(F)C(F)F)C(Cl)(Cl)Cl)c1cc(Oc2ccc(C(F)(F)F)cc2Cl)ccc1[N+](=O)[O-] (centres unmarked)
4. CCOC(=O)C(C)(C)OC(OC(=O)c1cc(Oc2ccc(C(F)(F)F)cc2Cl)ccc1[N+](=O)[O-])C(Cl)(Cl)Cl (centres unmarked)

3 (= 40 - 60 % Wirkung bzw. Schaden)
5 (= 80 - 100 % Wirkung bzw. Schaden)
5 (= 80 - 100 % Wirkung bzw. Schaden)
5 (= 80 - 100 % Wirkung bzw. Schaden)

Give one value of Herbizide Wirkung im Nachauflauf STM per listed compound.
1. CCOC(=O)C(C)OC(OC(=O)c1cc(Oc2ccc(C(F)(F)F)cc2Cl)ccc1[N+](=O)[O-])C(Cl)(Cl)Cl (centres unmarked)
2. Cc1ncsc1COC(OC(=O)c1cc(Oc2ccc(C(F)(F)F)cc2Cl)ccc1[N+](=O)[O-])C(Cl)(Cl)Cl (centres unmarked)
3. CCOC(=O)COC(OC(=O)c1cc(Oc2ccc(C(F)(F)F)cc2Cl)ccc1[N+](=O)[O-])C(Cl)(Cl)Cl (centres unmarked)
4. CP(C)(=O)COC(OC(=O)c1cc(Oc2ccc(C(F)(F)F)cc2Cl)ccc1[N+](=O)[O-])C(Cl)(Cl)Cl (centres unmarked)

5 (= 80 - 100 % Wirkung bzw. Schaden)
0
3 (= 40 - 60 % Wirkung bzw. Schaden)
2 (= 20 - 40 % Wirkung bzw. Schaden)
